Molecular target: T1, human MMP-14 (human, UniProt P50281 112-541, limits assumed)
T1 construct: Soluble MMP-14 used in selection, ELISA (biotinylated) and enzymatic assays; also called hMMP-14; bhMMP-14 (biotinylated human MMP-14)
Test: enzymatic inhibition assay, 2 nM MMP-14, 10 uM substrate Mca-Pro-Leu-Ala-Cys(Mob)-Trp-Ala-Arg-Dap(Dnp)-NH2; rate against [IgG] 0-50 nM
MEASURE NAME: pKi
Kindly note that pKi refers to -log10 of the concentration in mol/L and answer with the value alone.

The examples below pair each entry with its known result.
BINDER	MEASUREMENT
M0037-C09 IgG (antibody, V domains shown, IgG of the Fab; also called M037-C09) VH: EVQLLESGGGLVQPGGSLRLSCAASGFTFSHYEMFWVRQAPGKGLEWVSSISPSGGQTHYADSVKGRFTISRDNSKNTLYLQMNSLRAEDTAVYYCATDRTYYDFWSGYGPLWYWGQGTLVTVSS VL: DIQMTQSPLSLPVTLGESASVSCRSSQSLLHENGHNYLDWYLQKPGQSPQLLIYLGSNRASGVPDRFSGSGSGTDFTLKISRVEAEDVGVYYCMQSLKTPPTFGPGTKVEIK	8.14
M0043-G02 IgG (antibody, V domains shown, IgG of the Fab) VH: EVQLLESGGGLVQPGGSLRLSCAASGFTFSWYPMFWVRQAPGKGLEWVSGIYSSGGPTDYADSVKGRFTISRDNSKNTLYLQMNSLRAEDTAVYYCAKDTLGRYYDFWSGYSYGMDVWGQGTTVTVSS VL: DIQMTQSPGTLSLSPGERATLSCRASQSVSSSYLAWYQQKPGQAPRLLIYGASSRATGIPDRFSGSGSGTDFTLTISRLEPEDFAVYYCQSGVTFGGGTKVEIK	9.15

Query binder follows.
Recorded result, M0033-H07 IgG (antibody, V domains shown, IgG of the Fab) VH: EVQLLESGGGLVQPGGSLRLSCAASGFTFSVYGMVWVRQAPGKGLEWVSVISSSGGSTWYADSVKGRFTISRDNSKNTLYLQMNSLRAEDTALYYCARPFSRRYGVFDYWGQGTLVTVSS VL: DIQMTQSPSSLSASVGDRVTITCRASQGIRNFLAWYQQKPGKVPKLLVFGASALQSGVPSRFSGSGSGTDFTLTISGLQPEDVATYYCQKYNGVPLTFGGGTKVEIK , pKi: 8.48
